MEASURED_ON: CDKL1 (human)
ASSAY_REMARKS: KINOMEscan competition binding
APPLIED_CONDITIONS: compound 10.0 µM
QUANTITY_MEASURED: kinase still bound, per cent of control

Below are worked cases with known answers.
[
  {
    "CHEMICAL_STRING": "COc1cc2ncn(-c3cc(OCc4ccccc4C(F)(F)F)c(C(N)=O)s3)c2cc1OC",
    "RESULT": "72%"
  },
  {
    "CHEMICAL_STRING": "C=CC(=O)Nc1cc(-n2c(=O)ccc3cnc4ccc(-c5cn[nH]c5)cc4c32)ccc1C",
    "RESULT": "33%"
  },
  {
    "CHEMICAL_STRING": "C[C@@H](Oc1cc(-c2cnn(C3CCNCC3)c2)cnc1N)c1c(Cl)ccc(F)c1Cl",
    "RESULT": "81%"
  },
  {
    "CHEMICAL_STRING": "O=c1cc(N2CCOCC2)oc2c(-c3cccc4c3sc3ccccc34)cccc12",
    "RESULT": "87%"
  }
]

**Query** # query: kinase still bound, per cent of control of entry NC(=O)Nc1cc(-c2cccc(F)c2)sc1C(=O)N[C@@H]1CCCNC1
**Result** 46%
